Biological target: T1, IL23R_huFC (human, UniProt Q5VWK5 24-353)
T1 sequence (looked up): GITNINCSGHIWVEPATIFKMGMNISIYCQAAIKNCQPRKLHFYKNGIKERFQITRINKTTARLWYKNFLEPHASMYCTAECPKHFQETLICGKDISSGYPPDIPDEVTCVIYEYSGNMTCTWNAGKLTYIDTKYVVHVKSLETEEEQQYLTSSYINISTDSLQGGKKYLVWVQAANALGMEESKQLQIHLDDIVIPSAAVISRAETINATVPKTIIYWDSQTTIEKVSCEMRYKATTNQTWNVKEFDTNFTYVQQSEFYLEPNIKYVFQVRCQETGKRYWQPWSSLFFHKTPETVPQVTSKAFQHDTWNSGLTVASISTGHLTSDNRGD
Assay: IL23-IL23R competitive ELISA
pIC50: −log10 of the molar value. Bridges are numbered along the chain shown (N, C = ends).
Please provide measured pIC50 for the entries that follow.

The binder identified as H-CADWCCYWCTFG-NH2 (disulfide (positions not given here); also: disulfide pairing not given here) [Hy-CADWCCYWCTFG-NH2] registered its pIC50 at < 6.00

The binder identified as KACADWVCYWHTFG (Ac-; [(D)Lys]; [β-Ala]; disulfide) [Ac-[(D)Lys]-[β-Ala]-CADWVCYWHTFG-OH] registered its pIC50 at < 6.00

The binder identified as H-CTDWVCYWHEYS-NH2 (disulfide 1-6 (inferred)) [Hy-CTDWVCYWHEYS-NH2] registered its pIC50 at < 6.00

Value source: patent US20190300590A1
